- subject-of-test: mCXCR4 (Mus musculus, UniProt P70658)
- Construct: endogenous in cells; host or cells: Eμ-myc 1080 mouse B cell lymphoma cells
- Sequence (P70658 whole entry): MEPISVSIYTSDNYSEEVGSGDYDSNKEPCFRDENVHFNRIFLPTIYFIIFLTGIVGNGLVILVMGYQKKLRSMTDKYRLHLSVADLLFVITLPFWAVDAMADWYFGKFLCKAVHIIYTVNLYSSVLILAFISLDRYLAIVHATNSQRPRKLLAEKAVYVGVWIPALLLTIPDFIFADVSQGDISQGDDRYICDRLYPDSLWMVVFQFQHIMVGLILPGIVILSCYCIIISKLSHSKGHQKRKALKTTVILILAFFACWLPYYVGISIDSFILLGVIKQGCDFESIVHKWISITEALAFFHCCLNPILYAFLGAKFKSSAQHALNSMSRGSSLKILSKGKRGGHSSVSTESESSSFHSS
- protocol-notes: Competitive binding assay (IC50) on Eμ-Myc 1080 mouse lymphoma cells with [^125I]CPCR4.3 as radioligand
- conditions: Eμ-Myc1080 mouse B cell lymphoma cells, 200,000 cells/sample, radioligand [^125I]CPCR4.3
Non-standard residues stand in square brackets, D forms with d. Residues, ends and D or L forms follow the SMILES beside them. dAla(N-(6-guanidinohexyl)) = C[C@@H](NCCCCCCNC(=N)N)C(=O)O; dTyr(3-I) = N[C@H](Cc1ccc(O)c(I)c1)C(=O)O; 2Nal = N[C@@H](Cc1ccc2ccccc2c1)C(=O)O
recorded-endpoint: IC50 (nM)

N=C(N)NCCC[C@@H]1NC(=O)[C@H](CCCNC(=N)N)NC(=O)[C@@H](Cc2ccc(O)cc2)NC(=O)CNC(=O)[C@H](Cc2ccc3ccccc3c2)NC1=O [FC-131] = 119
C[C@@H]1C(=O)N[C@@H](CCCNC(=N)N)C(=O)N[C@@H](Cc2ccc3ccccc3c2)C(=O)NCC(=O)N[C@H](Cc2ccc(O)c(I)c2)C(=O)N1CCCCCCNC(=N)N [iodo-CPCR4.3] (cyclo([dTyr(3-I)][dAla(N-(6-guanidinohexyl))]R[2Nal]G)) = 4.9
C[C@@H]1C(=O)N[C@@H](CCCNC(=N)N)C(=O)N[C@@H](Cc2ccc3ccccc3c2)C(=O)NCC(=O)N[C@H](Cc2ccc(O)cc2)C(=O)N1CCCCCCNC(=N)N [CPCR4.3] (cyclo([dY][dAla(N-(6-guanidinohexyl))]R[2Nal]G)) = 0.8

// data source = paper PMC6692420
